Could you please report measured IC50 for the items listed next?
target: Cathepsin D (Cat D) (Homo sapiens, UniProt P07339); assay: In vitro enzymatic Cathepsin D (Cat D) FRET assay; assay type: biochemical; settings: Cathepsin D FRET assay; read-out: CatD IC50
Sequence (P07339 65-412, species assumed): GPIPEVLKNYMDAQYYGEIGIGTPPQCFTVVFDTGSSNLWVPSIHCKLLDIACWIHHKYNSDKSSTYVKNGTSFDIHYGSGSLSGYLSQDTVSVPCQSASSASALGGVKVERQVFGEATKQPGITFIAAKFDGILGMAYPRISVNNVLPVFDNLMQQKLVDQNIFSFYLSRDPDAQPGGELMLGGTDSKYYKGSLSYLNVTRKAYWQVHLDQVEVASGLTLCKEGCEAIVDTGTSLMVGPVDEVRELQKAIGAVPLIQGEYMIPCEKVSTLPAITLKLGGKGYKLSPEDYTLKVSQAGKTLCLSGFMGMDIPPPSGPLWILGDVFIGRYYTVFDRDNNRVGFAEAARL

Q) For the compound shown here, Cc1cc(C#CC2CC2)cnc1C(=O)Nc1ccc2c(c1)[C@@]1(C)N=C(N)C(C)(C)S(=O)(=O)[C@@H]1CCO2 [Example 83] , give the reported IC50.
A) 954 µM

Q) Please answer likewise for COc1cnc(C(=O)Nc2ccc3c(c2)[C@@]2(C)N=C(N)C(C)(C)S(=O)(=O)[C@@H]2CC(C)(C)O3)c(C)n1 [Example 101]
A) 835 µM

Q) Query Cc1cc(Cl)cnc1C(=O)Nc1ccc2c(c1)[C@@]1(C)N=C(N)C(C)(C)S(=O)(=O)[C@@]1(F)CCO2 [Example 87] next
A) 279 µM

Q) Another compound to look at: CC1(C)C(N)=N[C@]2(CF)c3cc(NC(=O)c4cnc(C(F)(F)F)cn4)ccc3OCC[C@H]2S1(=O)=O [Example 121]
A) 995 µM

Q) Now give it for COc1cnc(C(=O)Nc2ccc3c(c2)[C@@]2(CF)N=C(N)C(C)(C)S(=O)(=O)[C@H]2C[C@H](C)O3)cn1 [Example 108] too.
A) 388 µM

Q) Now give it for CC1(C)C(N)=N[C@]2(CF)c3cc(Nc4nccc5cc(Cl)cnc45)ccc3OCC[C@H]2S1(=O)=O [Example 148] too.
A) 710 µM

Q) And what about the compound COc1cnc(C(=O)Nc2ccc3c(c2)[C@@]2(CF)N=C(N)C(C)(C)S(=O)(=O)[C@@H]2CCO3)c(C)c1 [Example 152] ?
A) > 400 µM

Q) Here is the next compound: Cc1cc(C#N)cnc1C(=O)Nc1ccc2c(c1)[C@@]1(CF)N=C(N)C(C)(C)S(=O)(=O)[C@H]1CCO2 [Example 153]
A) 2070 µM

Q) And the next one, CC1(C)C(N)=N[C@]2(C)c3cc(NC(=O)c4ccc(OCC#N)cn4)ccc3OCC[C@H]2S1(=O)=O [Example 126] ?
A) > 1.65 µM

Q) // same read-out, input: COc1cnc2c(Nc3ccc4c(c3)[C@@]3(C)N=C(N)C(C)(C)S(=O)(=O)[C@H]3CCO4)nccc2n1 [Example 159]
A) > 400 µM

====

Molecular target: Beta Secretase enzyme (BACE) (Homo sapiens, UniProt P56817)
Sequence (P56817 46-501): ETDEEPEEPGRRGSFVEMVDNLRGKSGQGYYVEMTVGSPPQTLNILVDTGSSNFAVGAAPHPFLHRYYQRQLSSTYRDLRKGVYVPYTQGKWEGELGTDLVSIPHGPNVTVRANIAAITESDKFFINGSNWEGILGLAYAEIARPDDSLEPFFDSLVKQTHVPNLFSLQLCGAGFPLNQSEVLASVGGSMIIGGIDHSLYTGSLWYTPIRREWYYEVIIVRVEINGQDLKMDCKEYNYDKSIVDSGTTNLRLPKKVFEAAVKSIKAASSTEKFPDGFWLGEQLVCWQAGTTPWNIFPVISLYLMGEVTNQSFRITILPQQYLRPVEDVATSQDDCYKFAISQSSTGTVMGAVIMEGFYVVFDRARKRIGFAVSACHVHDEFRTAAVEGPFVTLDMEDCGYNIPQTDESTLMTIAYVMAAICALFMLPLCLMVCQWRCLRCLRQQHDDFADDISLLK
Assay: In vitro enzymatic BACE FRET assay
Type: biochemical
Conditions: average IC50, in vitro enzymatic BACE FRET assay; read-out: BACE1 FRET assay IC50
Description: In Vitro Enzymatic BACE FRET (Fluorescence Resonance Energy Transfer) Assay (Enzyme Assay Data in the Example Table I) The assay buffer used in this screen is 0.05 M acetate, pH 4.2, 10% DMSO final, 100 uM genapol (which is a nonionic detergent, below its Critical Micelle Concentration). […] The FRET assay is terminated with by addition of Tris buffer, which raises the pH to neutrality, and the fluorescence is determined. […]
Values of IC50 strictly less than 10 nM map to true (1), and values of at least 10 nM map to false (0).

Q) Could you please tell me whether IC50 recorded for CC1(C)C[C@@H]2[C@](C)(N=C(N)C(C)(C)S2(=O)=O)c2cc(NC(=O)c3ncc(Cl)cc3Cl)ccc2O1 is less than 10 nM?
A) true (1)

Q) Now the compound Cc1cnc(COc2cnc3c(Nc4ccc5c(c4)[C@@]4(C)N=C(N)C(C)(C)S(=O)(=O)[C@@H]4C[C@H](C)O5)nccc3n2)o1
A) true (1)

Q) Can you check Cc1cc(C(F)(F)F)cnc1C(=O)Nc1ccc2c(c1)[C@@]1(C)N=C(N)C(C)(C)S(=O)(=O)[C@]1(F)CCO2 next?
A) false (0)

Q) Then this compound: Cc1cc(C(F)(F)F)cnc1C(=O)Nc1ccc2c(c1)[C@@]1(CF)N=C(N)C(C)(C)S(=O)(=O)[C@H]1CCO2
A) false (0)

Q) Then this compound: CC#CCOc1cnc(C(=O)Nc2ccc3c(c2)[C@@]2(C)N=C(N)C(C)(C)S(=O)(=O)[C@H]2CC(C)(C)O3)cn1
A) true (1)

Q) Query COc1cnc2c(Nc3ccc4c(c3)[C@@]3(CF)N=C(N)C(C)(C)S(=O)(=O)[C@H]3CCO4)nccc2n1 next
A) false (0)

Q) Ok, now C#CCOc1cnc2c(Nc3ccc4c(c3)[C@@]3(C)N=C(N)C(C)(C)S(=O)(=O)[C@@H]3CC(C)(C)O4)nccc2n1
A) true (1)

Q) For Cc1cc(Cl)cnc1C(=O)Nc1ccc2c(c1)[C@@]1(CF)N=C(N)C(C)(C)S(=O)(=O)[C@H]1CCO2 then?
A) true (1)

Q) Could you do the same for Cc1cc(Cl)cnc1C(=O)Nc1ccc2c(c1)[C@@]1(C)N=C(N)C(C)(C)S(=O)(=O)[C@H]1CCS2 , please?
A) true (1)

Q) Next record, please: CC(C#N)Oc1ccc(C(=O)Nc2ccc3c(c2)[C@@]2(C)N=C(N)C(C)(C)S(=O)(=O)[C@@H]2CCO3)nc1 (mixture of isomers)
A) false (0)

Q) // query: CC1(C)C(N)=N[C@]2(C)c3cc(NC(=O)c4ccc(OCC(F)(F)F)cn4)ccc3OCC[C@H]2S1(=O)=O
A) false (0)

Q) And what about the compound C[C@H]1C[C@@H]2[C@](C)(N=C(N)C(C)(C)S2(=O)=O)c2cc(Nc3nccc4nc(O)cnc34)ccc2O1 ?
A) false (0)

Q) Then CC1(C)C(N)=N[C@]2(CF)c3cc(NC(=O)c4ccc(OC(F)F)cn4)ccc3OCC[C@H]2S1(=O)=O ?
A) false (0)

Q) Please give the result for COCc1ccc(C(=O)Nc2ccc3c(c2)[C@@]2(C)N=C(N)C(C)(C)S(=O)(=O)[C@@H]2CCO3)nc1 too.
A) false (0)

Q) Moving on to the next compound: Cc1cc(Cl)cnc1C(=O)Nc1ccc2c(c1)[C@@]1(C)N=C(N)C(C)(C)S(=O)(=O)[C@@H]1CCS2(=O)=O
A) true (1)

====

Molecular target: Cathepsin D (Cat D) (Homo sapiens)
Test: In vitro enzymatic Cathepsin D (Cat D) FRET assay
Type: biochemical
Conditions: Cathepsin D FRET assay; read-out: CatD IC50
Method: In Vitro Enzymatic Cathepsin D (Cat D) FRET (Fluorescence Resonance Energy Transfer) Assay Recombinant Cat D was expressed in CHO cells. The assay buffer for CathepsinD is 0.05 M citrate pH 3.5, 10% DMSO final, 5 mM CHAPS. […] The FRET assay is terminated with by addition of Tris buffer, which raises the pH to neutrality, and the fluorescence is determined. […] Proteolytic cleavage of the FRET substrate releases quenching of fluorescence (Cat D excitation 500 nm and emission 580 nm). […]
pIC50: −log10 of the molar value.
OBSERVED_PROPERTY: pIC50

Q) # get_value(readout='pIC50', item= COc1cnc(C(=O)Nc2ccc3c(c2)[C@@]2(C)N=C(N)C(C)(C)S(=O)(=O)[C@@H]2CCO3)c(C)c1 )
A) < 3.40

Q) Same read-out for C[C@H]1C[C@H]2[C@](CF)(N=C(N)C(C)(C)S2(=O)=O)c2cc(Nc3nccc4cc(C#N)cnc34)ccc2O1 ?
A) < 3.40

Q) Note, next up: C[C@H]1C[C@@H]2[C@](CF)(N=C(N)C(C)(C)S2(=O)=O)c2cc(Nc3nccc4cc(C#N)cnc34)ccc2O1
A) < 3.40

Q) Similarly, Cc1cc(Cl)cnc1C(=O)Nc1ccc2c(c1)[C@@]1(C)N=C(N)C(C)(C)S(=O)(=O)[C@@H]1CCS2(=O)=O ?
A) < 5.78

====

biological target: Cathepsin D (Cat D) (Homo sapiens, UniProt P07339); test: In vitro enzymatic Cathepsin D (Cat D) FRET assay; assay type: biochemical; conditions: read-out: CatD IC50
OBSERVED_PROPERTY: IC50

Q) May I ask what IC50 has been recorded for Cc1cc(Cl)cnc1C(=O)Nc1ccc2c(c1)[C@@]1(C)N=C(N)C(C)(C)S(=O)(=O)[C@@H]1CCO2 [Example 6a] ?
A) > 100 µM

Q) Also CC#CCOc1cnc2c(Nc3ccc4c(c3)C3(C)N=C(N)C(C)(C)S(=O)(=O)C3CCO4)nccc2c1 (stereo not shown) [Example 182] ?
A) > 400 µM

Q) Follow-up entry: Cc1cc(Cl)cnc1C(=O)Nc1ccc2c(c1)[C@]1(C)N=C(N)C(C)(C)S(=O)(=O)[C@H]1CCO2 (racemic) [Example 4]
A) > 100 µM

Q) Try this compound too: COc1cnc(C(=O)Nc2ccc3c(c2)[C@@]2(C)N=C(N)C(C)(C)S(=O)(=O)[C@@H]2CCO3)c(Cl)c1 [Example 173]
A) > 400 µM

Q) Also Cc1cc(C(F)F)cnc1C(=O)Nc1ccc2c(c1)[C@@]1(C)N=C(N)C(C)(C)S(=O)(=O)[C@H]1CCC2 [Example 35] ?
A) > 400 µM

Q) Another compound to look at: Cc1cc(C#N)cnc1C(=O)Nc1cnc2c(c1)[C@@]1(C)N=C(N)C3(CCC3)S(=O)(=O)[C@@H]1CCO2 [Example 62]
A) > 400 µM

Q) Consider next the compound Cc1cc(C(F)F)cnc1C(=O)Nc1ccc2c(c1)[C@@]1(C)N=C(N)C(C)(C)S(=O)(=O)[C@@H]1CCC2 [Example 40] in the same way.
A) > 400 µM
